- System: HOP-92
- Protocol notes: NCI tumour cell line growth inhibition, 48 h
Calls of active or inactive are those of the source. No stated cut-off is given here; in the data, active = GI50 up to about 1.1 µM and inactive = higher.
Quantity: GI50

Compound	GI50
COP(=O)(OC)/C(=C\C1=CN(C(c2ccccc2)(c2ccccc2)c2ccccc2)CN1)NC=O	10.3 µM (inactive)

GI50 reported for this compound `O=c1c2cccnc2ncn1CCN1CCCC1` : > 100 µM (inactive)

Per the record, `Clc1ccc(-c2nn3c(-c4ccncc4)nnc3s2)cc1` has GI50 of 41.6 µM (inactive)

response.value for `CC1(C)[C@@H](Cn2nnc3c(N)ncnc32)CC[C@@]1(C)CO` (field: GI50) = > 100 µM (inactive)

Item: COC(=O)C1=C(C)N(NC(N)=O)C2(N)N(NC(N)=O)C(C)=C(C(=O)OC)C12C#N (stereo unspecified) | GI50: > 100 µM (inactive)

According to the records, this compound C=C1C(=O)OCC2C(C(=O)O)=CC3C(C)C(C)=CC123 (stereo unspecified) displays GI50 of 10.6 µM (inactive)

// GI50 lookup, compound = `OCCCN(CCc1ccc(Cl)c(Cl)c1)CCN1CCCC1` , result: > 100 µM (inactive)

The compound listed as Cn1c2c(c3ccccc31)CC(=O)N1CCCC(C1)CC21OCCO1 (stereo unspecified) shows GI50 equal to > 100 µM (inactive)

Summary for this compound, CC1(O)C(C)(O)C(C)(O)C1(C)O (stereo unspecified) : GI50 is > 100 µM (inactive)

Form field GI50, entry O=C1NN=C(c2ccc([N+](=O)[O-])cc2)C1n1nc(-c2ccccc2)c2ccccc2c1=O (stereo unspecified) : > 100 µM (inactive)

So, `CCCCN(CCCC)C(=O)C(=O)CC(=O)/C=C/c1ccccc1` ? Its GI50 was > 100 µM (inactive)
